molecular target: HLA-A*69:01; assay: IEDB peptide-MHC binding, purified MHC/direct/fluorescence; filed as Kd, often an IC50 or EC50 that approximates it; bounds were set here for any values at or beyond the usual limits of such assays; details: source organism: Coxiella burnetii
ENDPOINT_NAME: pKd
Numbers only, as −log10 of the molar value.

Problem: Request: pKd, test system HLA-A*69:01, entry "YMHGSIHEV"
Result: 7.39

----------
biological target: HLA-B*57:01; test: IEDB peptide-MHC binding, purified MHC/competitive/radioactivity; filed as Kd, often an IC50 or EC50 that approximates it; bounds were set here for any values at or beyond the usual limits of such assays; conditions: source organism: Dengue virus 4 Philippines/H241/1956
ENDPOINT_NAME: Kd (nM)
One number for each entry, in nM.

Illustrative cases are given below, each with its answer.
{"RESIDUES": "EAVNDSRFW", "Kd / nM": 1260}
{"RESIDUES": "RFSTSLLFLN", "Kd / nM": 1090}

# ---- query sequence ----
Problem: Consider the sequence "VASAGISYKD" and give its measured Kd.
Result: 4690

----------
molecular target: HLA-A*30:01; experiment: IEDB peptide-MHC binding, purified MHC/competitive/fluorescence; filed as Kd, often an IC50 or EC50 that approximates it; bounds were set here for any values at or beyond the usual limits of such assays; conditions: source organism: Bacillus anthracis str. A0389
ENDPOINT_NAME: pKd
Give bare numbers, as −log10 of the molar value.

Problem: Consider the sequence "KLYVNGKAY" and give its measured pKd.
Result: 6.40

----------
target: HLA-A*29:02; experiment: IEDB peptide-MHC binding, purified MHC/competitive/radioactivity; filed as Kd, often an IC50 or EC50 that approximates it; bounds were set here for any values at or beyond the usual limits of such assays; details: source organism: SARS coronavirus Tor2
pKd: −log10 of the molar value.
Each record gets a class by pKd: LOW (below 6), MID (6 to below 7), HIGH (7 or more)

// known answers, use as guide
{"RESIDUES": "APALQEAYY", "CAT": "LOW"}
{"RESIDUES": "YEDQDALFAY", "CAT": "MID"}
{"RESIDUES": "SYREAACCHL", "CAT": "LOW"}
{"RESIDUES": "LYLTQDLFL", "CAT": "LOW"}

Problem: Note: place this sequence into its band. Item: "YLALYNKYKY"
Result: HIGH

Problem: Note: place this sequence into its band. Item: "VYKVYYGNAL"
Result: LOW

Problem: Note: place this sequence into its band. Item: "TYASALWEI"
Result: LOW

Problem: Note: place this sequence into its band. Item: "LDESFLGRY"
Result: LOW

Problem: Note: place this sequence into its band. Item: "VFSAVGNICY"
Result: HIGH

Problem: Note: place this sequence into its band. Item: "LFLAFVVFL"
Result: LOW

Problem: Note: place this sequence into its band. Item: "TSSMRGVYY"
Result: MID

----------
biological target: HLA-A*26:02; experiment: IEDB peptide-MHC binding, purified MHC/direct/fluorescence; filed as Kd, often an IC50 or EC50 that approximates it; bounds were set here for any values at or beyond the usual limits of such assays; conditions: source organism: Vibrio vulnificus CMCP6
ENDPOINT_NAME: Kd

Problem: Consider the sequence "TTILGLLPM" and give its measured Kd.
Result: ≤ 1 nM
